Please respond with reported shrunken log2 fold change for every item in the list.
System: Escherichia coli TOP10;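 further: peptides expressed intracellularly from a pBAD plasmid library in pooled LB shake-flask culture, induced with 0.3% L-arabinose, DNA abundance read by NGS, three biological replicates, DESeq2 with apeglm shrinkage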
Assay: shrunken log2 fold change of peptide-encoding DNA abundance (4.5 h post-induction vs induction); higher = less antimicrobial activity (less host growth inhibition)
Conditions: time post-induction: 4.5 h; library: site-saturation at positions 5, 18, 19, 20

Quick check: shrunken log2 fold change of `RRIRERPPRLPRPRPRPSDIPRP` ?
-0.0101

And for `RRIRVRPPRLPRPRPRPIQSPRP` ?
-0.177

And for `RRIRGRPPRLPRPRPRPFAIPRP` ?
-0.0466

And for `RRIRIRPPRLPRPRPRPQKSPRP` ?
-0.403

And for `RRIRCRPPRLPRPRPRPLQVPRP` ?
-0.481

And for `RRIRRRPPRLPRPRPRPWLWPRP` ?
0.0836

And for `RRIRKRPPRLPRPRPRPIRIPRP` ?
-0.0265

And for `RRIRIRPPRLPRPRPRPIKYPRP` ?
-2.06
